Target: HTRA1, Q92743
Sequence (Q92743 360-477): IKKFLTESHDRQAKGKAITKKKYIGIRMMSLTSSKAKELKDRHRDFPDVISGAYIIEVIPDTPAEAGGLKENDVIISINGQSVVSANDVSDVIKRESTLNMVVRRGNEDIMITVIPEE
Experiment: holdup assay
Parameters: key: below the threshold = too weak to quantify, mostly under pKd 3.1 to 4
Details: plain residues with an end cap or a label only (N-terminal biotin on a linker: ado-ado)
Each entry below lists one item and its recorded pKd value.
Just the number, please, no unit attached.

Look over these answered cases.
KSRPENGTVC [TMEM178B, H3BS89]
4.32
VISSDDLTEL [CAPN6, Q9Y6Q1]
4.55

Request: What does the record list as pKd for THREVKFTSL [CD46, P15529] ?
Response: 3.89
